system_name: B/BR/60/08 virus NA (Influenza B virus, UniProt C0LT34)
cond: read-out: NA enzyme inhibition assay (mean IC50 ± SD)
measure: IC50 (pM)
Respond with the bare value in pM.

Prompt: Quick one: give measured IC50 for CCC(CC)[C@H](NC(C)=O)[C@@H]1[C@H](O)[C@@H](C(=O)O)C[C@H]1N=C(N)N
Completion: 500
